# systemTested: unphosphorylated-BTK kinase domain (UP-BTK), GST-tagged human BTK (389-659aa) (Homo sapiens (Human))
# Sequence (Q06187 389-659): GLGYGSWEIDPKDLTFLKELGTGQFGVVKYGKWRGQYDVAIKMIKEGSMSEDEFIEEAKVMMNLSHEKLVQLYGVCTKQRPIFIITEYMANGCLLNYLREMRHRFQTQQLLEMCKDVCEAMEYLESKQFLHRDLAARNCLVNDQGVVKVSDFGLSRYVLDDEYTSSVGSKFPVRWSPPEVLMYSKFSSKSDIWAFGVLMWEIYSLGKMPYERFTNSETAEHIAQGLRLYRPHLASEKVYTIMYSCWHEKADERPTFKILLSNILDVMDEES
# experiment: BTK kinase Lanthascreen binding assay
# conditions: negative log of the IC50 in molar; 60 minutes incubation with 50 nM Tracer 236
# Description: BTK Kinase Lanthascreen Binding Assay: A BTK kinase lanthascreen binding assay monitors compound binding to unphosphorylated-BTK kinase domain (UP-BTK), by competing with a fluorescent labeled tracer. […] Data were analyzed using Xlfit™ version 5.3 from ID Business Solutions (Guildford), Microsoft Excel add-in. pIC50 refers to the negative log of the IC50 in molar.
BTK_I_binding pIC50 below 7 gives 0; BTK_I_binding pIC50 at or above it gives 1.

Examples with answers:
[[record]]
compound = "C=CC(=O)N1CCC[C@@H](NC(=O)c2sc3nccc4c3c2NC(=O)N4c2ccc(OC3CCOCC3)cc2C)C1 (single isomer, unassigned) [Example 742]"
label = 0

[[record]]
compound = "C=CC(=O)N1CCC[C@@H](NC(=O)c2sc3nccc4c3c2NC(=O)N4c2cnc(OC3CCC3)cc2C)C1 (single isomer, unassigned) [Example 700]"
label = 1

[[record]]
compound = "C=CC(=O)N1CC[C@@H](NC(=O)c2sc3nccc4c3c2NC(=O)N4c2cnc(CC(C)C)cc2C)C1 (single isomer, unassigned) [Example 747]"
label = 1

[[record]]
compound = "C=CC(=O)N1CC[C@@H](NC(=O)c2sc3nccc4c3c2NC(=O)N4c2cnc(CC(C)C)cc2C)C1 (single isomer, unassigned) [Example 756]"
label = 0

[[record]]
compound = "CCC(=O)N1CCC[C@@H](NC(=O)c2sc3nccc4c3c2NC(=O)N4c2cnc(CC(C)C)cc2C)C1 (single isomer, unassigned) [Example 765]"
label = 0


Q: Exam item: decide whether the reported BTK_I_binding pIC50 for C=CC(=O)N1CCC[C@@H](NC(=O)c2sc3nccc4c3c2NC(=O)N4c2ccc(CC(C)C)nc2C)C1 (single isomer, unassigned) [Example 815] is at least 7.
Ans: 0

Q: C=CC(=O)N1CCC[C@@H](NC(=O)c2sc3nccc4c3c2NC(=O)N4c2ccc(Oc3ccccc3)nc2C)C1 (single isomer, unassigned) [Example 690] ?
Ans: 1

Q: C=CC(=O)N1CC[C@@H](NC(=O)c2sc3nccc4c3c2NC(=O)N4c2cnc(OC3CCCC3)cc2C)C1 (single isomer, unassigned) [Example 776] ?
Ans: 1

Q: C=CC(=O)N1CCC[C@@H](NC(=O)c2sc3nccc4c3c2NC(=O)N4c2ccc(OC(F)(F)F)cc2C)C1 (single isomer, unassigned) [Example 624] ?
Ans: 0

Q: C=CC(=O)N1CC[C@@H](NC(=O)c2sc3nccc4c3c2NC(=O)N4c2cnc(OCC(C)C)cc2C)C1 (single isomer, unassigned) [Example 779] ?
Ans: 1

Q: C=CC(=O)N1CCC[C@@H](NC(=O)c2sc3nccc4c3c2NC(=O)N4c2cnc(Oc3ccccc3)cc2C)C1 (single isomer, unassigned) [Example 691] ?
Ans: 0
